# test_summary: Cellular viability qHTS for adrenocortical cancer (ACC) cell line NCI-H295R (AID 1963990); also: nearly all actives have a fitted effect of over 60% in size; also: potency is read from the fitted curve at half-maximal effect
# applied_conditions: CellTiter-Glo ATP luminescence, 48 h; series mostly up to 46.1 µM
# Source text: PI: Naris Nilubol, MD Surgical Oncology Program, National Cancer Institute (NCI) National Institute of Health (NIH), Bethesda, Maryland Adrenocortical cancer (ACC) is a rare malignancy with poor survival outcomes and few treatment options. Currently, mitotane is the only FDA-approved therapy for ACC. […] Through a quantitative high-throughput drug screen (qHTS), we identified auranofin (AF), a thioredoxin reductase (TXNRD) inhibitor, as a promising candidate drug. […]
Inconclusive results are not listed. The source made the active and inactive calls. Calls follow the shape of the dose curve; as a rule, active = well fitted cell-killing curve with a large enough effect; inconclusive = small, poorly fitted or top-dose-only effect; inactive = flat fitted curve, though single readings scatter.
property_name: Potency

compound	recorded_measurement
O=C(NCC1CCCCN1)c1cc(OCC(F)(F)F)ccc1OCC(F)(F)F (stereo not drawn)	inactive
COC1CCC(N2C(=O)CNc3ncc(-c4ccc(C(C)(C)O)nc4)nc32)CC1 (stereo not drawn)	15.8 µM (active)
COc1ccc(S(=O)(=O)Nc2nnc(CC(C)C)s2)cc1	inactive
CN(C)CCN1C(=O)c2cccc3cc(N)cc(c23)C1=O	22.4 µM (active)
CS(=O)(=O)c1ccc([C@@H](O)[C@@H](CF)NC(=O)C(Cl)Cl)cc1	inactive
COc1ccc([C@@H]2Sc3ccccc3N(CCN(C)C)C(=O)[C@@H]2OC(C)=O)cc1	inactive
Cc1c(C(C)C)c(=O)n(-c2ccccc2)n1C	inactive
CC(=O)OCC(=O)NCCCOc1cccc(CN2CCCCC2)c1	inactive
Oc1ccccc1	inactive
CCOc1ccc(C(=O)OCCN(CC)CC)cc1	inactive
CN(C)CCCN=c1c2ccccc2n(C)c2[nH]c(=O)n(C)c(=O)c12	28.2 µM (active)
COc1cc(-c2ccc(=O)[nH]n2)ccc1OC(F)F	inactive
C=C1[C@H](CO)[C@@H](O)C[C@@H]1n1cnc2c(=O)[nH]c(N)nc21	inactive
Cc1ccc(NC(=O)c2cccc(N(C)C)c2)cc1NC(=O)c1ccc(O)cc1	inactive
CC/C(=C(/c1ccc(/C=C/C(=O)O)cc1)c1ccc2[nH]ncc2c1)c1ccc(F)cc1Cl	15.8 µM (active)
c1ccc2c(CC3=NCCN3)cccc2c1	inactive
Cc1cccc(C)c1NC(=O)c1ccccc1C(=O)O	inactive
Cc1nc(N)nc(N)c1-c1ccc(Cl)c(Cl)c1	0.13 µM (active)
O=C(O)c1cccnc1	inactive
Cc1oc(=O)oc1CN1CCN(c2cc3c(cc2F)c(=O)c(C(=O)O)c2n3C(C)S2)CC1 (stereo not drawn)	inactive
COc1ccccc1N1CCN(CC(O)COc2cc(OC)c(OC)c(OC)c2)CC1 (stereo not drawn)	inactive
OC[C@@H](O)[C@@H](O[C@@H]1O[C@H](CO)[C@H](O)[C@H](O)[C@H]1O)[C@H](O)[C@@H](O)CO	inactive
O=C1CC2(CCCC2)CC(=O)N1	inactive

====

# test_summary: Viability qHTS for spleen associated tyrosine kinase inhibitor (SYKi) drug resistant MV4-11 cells (AID 1963824); also: nearly all actives have a fitted effect of over 35% in size
# applied_conditions: SYKi-resistant MV4-11 viability, CellTiter-Glo, 72 h; series mostly up to 45 µM
Results filed as inconclusive are left out. Active and inactive are the calls of the source. The call rests on the fitted dose curve; in most records, active means well fitted cell-killing curve with a large enough effect; inconclusive means small, poorly fitted or top-dose-only effect, or effect the other way; inactive means no such curve, though single readings can be large or run the other way.
Outcome codes: true (1) for active, false (0) for inactive

compound	classification
CC(C)(C)C1CCN(C(=O)n2ncc(C(O)(c3ccccc3)c3ccccc3)n2)CC1	true (1)
CC1(C)C[C@H]2C=C(C=O)[C@]3(C(=O)O)C[C@]3(C)[C@H]2C1	false (0)
O=C(O)/C=C/c1ccc(Cn2ccnc2)cc1	false (0)
COC1OC(O)C2(CCC3(O2)C(C)CC2OC(=O)C4(C)CCCC3(C)C24)C1O (centres undefined)	false (0)
c1cc(-c2sc(-c3ccncc3)c(-c3ccncc3)c2-c2ccncc2)ccn1	true (1)
CC(C)C1NC(=O)C2CCCN2C1=O (centres undefined)	false (0)
C=C1CC[C@@H]2[C@](C)(CO)[C@H](O)CC[C@@]2(C)[C@@H]1C/C=C1/C(=O)OC[C@H]1O	true (1)
CC12CC3CC(C)(C1)CC(N)(C3)C2	true (1)
CC(=O)OC[C@]12[C@H](OC(C)=O)C(=O)[C@@H]3[C@@H](OC(C)=O)[C@@]14O[C@@]3(C)COC(=O)c1cccnc1[C@@H](C)[C@H](C)C(=O)O[C@@H]([C@H](OC(C)=O)[C@@H]2OC(C)=O)[C@]4(C)O	false (0)
